# System: U-2 OS
# Test details: cell painting activity score (Mahalanobis distance from DMSO wells); higher = stronger morphological phenotype
# Experimental setup: 2.5 µM; 24 h
Experimental readout: cell painting activity score
When you answer, write just the number.

Worked set:
Cn1ncnc2c(=O)n(C)c(=O)nc1-2    15.7
C=CC(=O)Nc1cc2c(Nc3ccc(F)c(Cl)c3)ncnc2cc1OC    6.2
COS(=O)(=O)O.C[n+]1c2ccccc2nc2ccccc21    9.91
CC[C@H]1CN2CCc3cc(OC)c(OC)cc3[C@@H]2C[C@@H]1C[C@H]1NCCc2cc(OC)c(OC)cc21.Cl.Cl.O    19.4
Nc1nc(Cl)nc2c1ncn2[C@H]1C[C@H](O)[C@@H](CO)O1    13.6

Reported cell painting activity score of COc1ccc(/C=C/C(=O)O[C@@H]2[C@H](O[C@@H]3O[C@@H](C)[C@H](O)[C@@H](O)[C@H]3O)[C@@H](O[C@@H]3O[C@@H](C)[C@H](O[C@@H]4OC[C@@H](O[C@@H]5O[C@H](CO)[C@H](O)[C@H](O)[C@H]5O)[C@H](O)[C@H]4O)[C@@H](O)[C@H]3O)[C@H](OC(=O)[C@]34CCC(C)(C)C[C@H]3C3=CC[C@@H]5[C@@]6(C)C[C@H](O)[C@H](O[C@@H]7O[C@H](CO)[C@@H](O)[C@H](O)[C@H]7O)[C@@](C)(C(=O)O)[C@@H]6CC[C@@]5(C)[C@]3(CO)CC4)O[C@@H]2C)cc1 : 12.4

Reported cell painting activity score of CCCCCCCCCCCC1=C(O)C(=O)C=C(O)C1=O : 7.31

Reported cell painting activity score of COc1cc(/C=C/C(=O)CC(=O)/C=C/c2ccc(O)c(OC)c2)ccc1O : 4.65

Entry source: the supplement of paper PMC10011410
